Known ED30 of a selection of compounds
- Test system: Rattus norvegicus
- test protocol: Dose required to reduce mean blood pressure after 20 hr following (po) administration conscious spontaneously hypertensive rat
- Assay type: functional
readout label: ED30 (mg/kg)

1) CC1(C)C=C(n2ccccc2=O)c2cc(C#N)ccc2O1 [BIMAKALIM]; 0.186
2) CC1(C)Oc2ccc(C#N)cc2[C@H](N2CCCC2=O)[C@H]1O [(-)-CROMAKALIM]; 0.603
3) CC1(C)C=C(n2ccccc2=O)c2cc([N+](=O)[O-])ccc2O1; 0.102
4) CC1(C)C=C(n2ccncc2=O)c2cc(C#N)ccc2O1; 0.357

* * *

- Test system: Rattus norvegicus
- test protocol: Dose required to reduce blood pressure by 30 mmHg after (po) administration in conscious spontaneously hypertensive rat
- Type: functional
Classify by measured ED30: TRUE if it is equal to or exceeds 0.06 mg/kg, FALSE if it is smaller.

1. CC(=O)O[C@H]1[C@H](n2ccccc2=O)c2cc(C#N)ccc2OC1(C)C; TRUE
2. CC1(C)Oc2ccc(C#N)cc2C(n2ncccc2=O)[C@@H]1O (stereo partly drawn); FALSE
3. CC1(C)Oc2ccc(C#N)cc2C(n2ccncc2=O)[C@@H]1O (stereo partly drawn); FALSE
4. CC1(C)Oc2ccc([N+](=O)[O-])cc2[C@@H](n2ccccc2=O)[C@@H]1O; FALSE
5. CC1(C)Oc2ccc(C#N)cc2[C@@H](n2ccccc2=O)[C@@H]1O; FALSE
6. COC(=O)c1ccc2c(c1)C(n1ccccc1=O)=CC(C)(C)O2; TRUE
7. COC(=N)c1ccc2c(c1)C(N1CCCC1=O)[C@H](O)C(C)(C)O2 (stereo partly drawn); TRUE
8. CCOc1ccn(C2=CC(C)(C)Oc3ccc(C#N)cc32)c(=O)c1; FALSE
9. CC1(C)Oc2ccc(C#N)cc2[C@]2(n3ccccc3=O)O[C@H]12; TRUE
10. CC1(C)C=C(n2ccccc2=O)c2cc(Br)ccc2O1; TRUE
11. CC(=O)c1ccc2c(c1)C(n1ccccc1=O)=CC(C)(C)O2; FALSE
12. CC1(C)C=C(n2ccccc2=O)c2cc([N+](=O)[O-])ccc2O1; FALSE
13. CC1(C)Oc2ccc(C#N)cc2C(N2N=CCCC2=O)[C@@H]1O (stereo partly drawn); TRUE
14. CC1(C)Oc2ccc(C#N)cc2[C@@H](n2ccccc2=O)[C@@H]1OC=O; FALSE
15. CC1(C)Oc2ccc(C#N)cc2[C@H](N2CCCC2=O)[C@H]1O [(-)-CROMAKALIM]; TRUE
16. CC1(C)CC(n2ccccc2=O)c2cc(C#N)ccc2O1 (stereo not drawn); TRUE
17. CC1(C)C=C(n2ccncc2=O)c2cc(C#N)ccc2O1; FALSE
18. CC1(C)C=C(n2ccccc2=O)c2cc(C#N)ccc2O1; FALSE
19. CC1(C)C=C(n2cc(N)ccc2=O)c2cc(C#N)ccc2O1; TRUE
20. COc1ccn([C@@H]2c3cc(C#N)ccc3OC(C)(C)[C@H]2O)c(=O)c1; TRUE
21. CC1(C)Oc2ccc([N+](=O)[O-])cc2[C@@H](n2ccccc2=O)[C@@H]1OC=O; TRUE
22. COc1ccn(C2=CC(C)(C)Oc3ccc(C#N)cc32)c(=O)c1; TRUE

* * *

- Tested on: Rattus norvegicus
- test protocol: Dose required to reduce mean blood pressure after 2 hr following (po) administration conscious spontaneously hypertensive rat
- Format: functional
Known ED30 of a selection of compounds
readout label: ED30 (mg/kg)

1. CC(=O)O[C@H]1[C@H](n2ccccc2=O)c2cc(C#N)ccc2OC1(C)C; 0.112
2. CC1(C)C=C(n2cc(N)ccc2=O)c2cc(C#N)ccc2O1; 0.341
3. CC(=O)c1ccc2c(c1)C(n1ccccc1=O)=CC(C)(C)O2; 0.074
4. CC1(C)Oc2ccc(C#N)cc2C(n2ccncc2=O)[C@@H]1O (stereo partly specified); 0.291
5. CC1(C)Oc2ccc(C#N)cc2C(n2ncccc2=O)[C@@H]1O (stereo partly specified); 0.045
6. CC1(C)Oc2ccc(C#N)cc2[C@@H](n2ccccc2=O)[C@@H]1OC=O; 0.067

* * *

- Tested on: Rattus norvegicus
- test protocol: Antihypertensive effect after 1 mg/kg (po) administration in conscious spontaneously hypertensive rat (over a time period of 0-210 minutes).
- Assay type: functional
Label met when Max fall in blood pressure < 90 mmHg; otherwise not met.

1. CC1(C)Oc2ccc(-c3ccncc3)cc2[C@@H](n2ccccc2=O)[C@@H]1O; met
2. CC1(C)Oc2ccc(C#N)cc2[C@H](N2CCCC2=O)[C@H]1O [(-)-CROMAKALIM]; met
3. CC1(C)Oc2ccc(C#N)cc2[C@]2(n3ccccc3=O)O[C@H]12; met
4. CC1(C)Oc2ccc([N+](=O)[O-])cc2[C@@H](n2ccccc2=O)[C@@H]1OC=O; not met

* * *

Known Max fall in blood pressure of a selection of molecules
- System: Rattus norvegicus
- test protocol: Antihypertensive effect after 1 mg/kg (po) administration in conscious spontaneously hypertensive rat (over a time period of 0-210 minutes).
- Format: functional
readout label: Max fall in blood pressure (mmHg)

1. CC1(C)Oc2ccc([N+](=O)[O-])cc2[C@]2(n3ccccc3=O)O[C@H]12; 118
2. CC1(C)Oc2ccc(C#N)cc2[C@@H](n2ccccc2=O)[C@@H]1OC=O; 101
3. CC1(C)Oc2ccc(C#N)cc2C(n2ncccc2=O)[C@@H]1O (some centres not stated); 77
4. CC(=O)c1ccc2c(c1)C(n1ccccc1=O)=CC(C)(C)O2; 130
5. CC1(C)Oc2ccc(C#N)cc2C(n2ccncc2=O)[C@@H]1O (some centres not stated); 75
6. CC1(C)Oc2ccc(C#N)cc2[C@@H](n2cccc(C(=O)O)c2=O)[C@@H]1O; 24
7. CCOC(=O)c1ccc(=O)n(C2c3cc(C#N)ccc3OC(C)(C)[C@H]2O)n1 (some centres not stated); 24
8. CC1(C)C=C(n2ccccc2=O)c2cc(C=O)ccc2O1; 35
9. CC1(C)Oc2ccc(C#N)cc2C(n2ccc3ccccc3c2=O)[C@@H]1O (some centres not stated); 24
10. COc1ccn([C@@H]2c3cc(C#N)ccc3OC(C)(C)[C@H]2O)c(=O)c1; 73
11. CC1(C)Oc2ccc(/N=C/c3ccc([N+](=O)[O-])cc3)cc2C(N2CCCC2=O)[C@@H]1O (some centres not stated); 26
12. CC1(C)C=C(n2ccc(=O)[nH]c2=O)c2cc(C#N)ccc2O1; 23
13. CC(=O)OC1=C(n2ccccc2=O)c2cc(C#N)ccc2OC1(C)C; 21
14. CC1(C)C=C(n2ccncc2=O)c2cc(C#N)ccc2O1; 105
15. CC1(C)Oc2ccc(C#N)cc2[C@@H](n2cc([N+](=O)[O-])ccc2=O)[C@@H]1O; 23
16. CC1(C)Oc2ccc(C(=N)S)cc2C(N2CCCC2=O)[C@@H]1O (some centres not stated); 22
17. CC1(C)C=C(n2ccccc2=O)c2cc(C(=N)S)ccc2O1; 23
18. CC1(C)C=C(n2ccccc2=O)c2cc(C#N)ccc2O1 [BIMAKALIM]; 142
19. CC1(C)Oc2ccc(/C=C/C#N)cc2[C@@H](n2ccccc2=O)[C@@H]1O; 25
20. CC1(C)Oc2ccc(C#N)cc2C(n2ccccc2=O)C1=O (configuration not stated); 20
21. CC1(C)Oc2ccc(C#N)cc2[C@H](n2ccccc2=O)[C@@H]1O; 26
22. CC1(C)Oc2ccc([N+](=O)[O-])cc2[C@@H](n2ccccc2=O)[C@@H]1O; 113

* * *

- System: Rattus norvegicus
- test protocol: Dose required to reduce mean blood pressure after 2 hr following (po) administration conscious spontaneously hypertensive rat
- Type: functional
Known ED30 of a selection of molecules
readout label: ED30 (mg/kg)

1) CC1(C)C=C(n2ccccc2=O)c2cc(Br)ccc2O1; 0.069
2) CC1(C)C=C(n2ccncc2=O)c2cc(C#N)ccc2O1; 0.038
3) CC1(C)C=C(n2ccccc2=O)c2cc(C#N)ccc2O1; 0.036

* * *

- System: Rattus norvegicus
- test protocol: Dose required to reduce mean blood pressure after 20 hr following (po) administration conscious spontaneously hypertensive rat
- Type: functional
Known ED30 of a selection of molecules
readout label: ED30 (mg/kg)

1) CC1(C)C=C(n2ccccc2=O)c2cc(Br)ccc2O1; 1.27
2) CC1(C)C=C(n2cc(N)ccc2=O)c2cc(C#N)ccc2O1; 1.61
3) CC(=O)c1ccc2c(c1)C(n1ccccc1=O)=CC(C)(C)O2; 0.546

* * *

Known ED30 of a selection of compounds
- System: Rattus norvegicus
- test protocol: Dose required to reduce mean blood pressure after 2 hr following (po) administration conscious spontaneously hypertensive rat
- Assay type: functional
readout label: ED30 (mg/kg)

1. COC(=O)c1ccc2c(c1)C(n1ccccc1=O)=CC(C)(C)O2; 0.573
2. CC1(C)Oc2ccc(C#N)cc2C(N2N=CCCC2=O)[C@@H]1O (stereo partly drawn); 0.056
3. CC1(C)C=C(n2ccccc2=O)c2cc([N+](=O)[O-])ccc2O1; 0.0007

Provenance of the data: ChEMBL document CHEMBL1125037
